Just for reference, patent US5811456A is where these values come from.

target-entity: rat brain MAO B (Rattus norvegicus, UniProt P19643)
Construct: makes it possible to obtain a pellet enriched in mitochondria; from tissue; host or cells: Wistar rat brain without cerebellum, mitochondria-enriched pellet
Sequence (P19643 whole entry): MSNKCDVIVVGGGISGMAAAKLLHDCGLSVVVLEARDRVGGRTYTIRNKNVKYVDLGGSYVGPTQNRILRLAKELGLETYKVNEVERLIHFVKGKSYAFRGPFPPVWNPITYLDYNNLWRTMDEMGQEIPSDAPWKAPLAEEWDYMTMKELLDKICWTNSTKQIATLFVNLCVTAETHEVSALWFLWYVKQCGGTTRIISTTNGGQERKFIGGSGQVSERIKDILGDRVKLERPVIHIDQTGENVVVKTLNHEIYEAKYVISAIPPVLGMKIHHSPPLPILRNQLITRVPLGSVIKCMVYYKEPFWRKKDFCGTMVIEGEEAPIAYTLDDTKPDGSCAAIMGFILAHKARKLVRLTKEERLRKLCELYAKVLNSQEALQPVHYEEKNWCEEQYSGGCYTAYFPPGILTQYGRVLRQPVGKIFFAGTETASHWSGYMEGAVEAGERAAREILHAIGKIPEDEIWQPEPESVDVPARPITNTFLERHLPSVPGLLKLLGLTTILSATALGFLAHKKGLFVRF
method-summary: Inhibitory activity toward rat brain MAO B in vitro (14C-beta-phenylethylamine substrate)
Format: biochemical
measurement-conditions: ap: after preincubation (30 minutes, 37° C.); read-out: IC50 MAO B
Criterion: IC50 strictly under 2 µM. Met: fulfilled. Not met: not fulfilled.

Solved cases below.
Lab note: IC50 threshold 2 µM. Does this compound come in strictly under it? CNC(=O)N(CCC#N)N=Cc1ccccc1 [I-c1]
not fulfilled

Again, but for CC(=O)N(CCC#N)N=Cc1ccc(OCCc2ccccc2)cc1 [I-a6]
fulfilled

C#CCN(N=Cc1ccc(OCc2ccccc2)cc1)C(C)=O [I-a10] ?
fulfilled

Continue with COc1ccc(COc2ccc(C=NN(CCC#N)C(C)=O)cc2)cc1 [I-a2.4]
not fulfilled

Same for CCOC(=O)N(CCO)N=Cc1ccc(OCc2ccccc2)cc1 [I-b4]
not fulfilled

Now for another entry.
Item CC(=O)N(CCO)N=Cc1ccc(OCc2ccccc2)cc1 [I-a4] : IC50 beneath 2 µM, strictly?
fulfilled
